# Test system: rape
# test name: Test B pre/postemergence rape
# Assay type: in vivo, Brassica napus
# measurement context: Preemergence, Rate 250 g/ha; scale of 0 to 10 where 0 is no effect and 10 is complete control
measurement name: Plant response rating, Rape

* Cc1ccccc1Cn1c(=O)on(C(=O)N(c2ccc(F)cc2)C(C)C)c1=O | 0
* Cc1ccccc1-n1c(=O)on(C(=O)N(c2ccc(F)cc2)C(C)C)c1=O | 6
* CC(C)N(C(=O)n1oc(=O)n(C2CCCCC2)c1=O)c1ccc(Cl)cc1 | 4
* CC(C)N(C(=O)n1oc(=O)n(Cc2cccs2)c1=O)c1ccccc1 | 0
* CC(C)N(C(=O)n1oc(=O)n(C2CCCCC2)c1=O)c1ccc(F)cc1 | 4
* CC(C)N(C(=O)n1oc(=O)n(Cc2cccs2)c1=O)c1ccc(F)cc1 | 4
